# assayed-system: PDE III (cAMP-specific PDE which is inhibited by cGMP) (Canis lupus familiaris, UniProt A0A8I3NYE0)
# Construct: purified from canine tracheal smooth muscle; from tissue; host or cells: canine tracheal smooth muscle
# Sequence (A0A8I3NYE0 1-1135): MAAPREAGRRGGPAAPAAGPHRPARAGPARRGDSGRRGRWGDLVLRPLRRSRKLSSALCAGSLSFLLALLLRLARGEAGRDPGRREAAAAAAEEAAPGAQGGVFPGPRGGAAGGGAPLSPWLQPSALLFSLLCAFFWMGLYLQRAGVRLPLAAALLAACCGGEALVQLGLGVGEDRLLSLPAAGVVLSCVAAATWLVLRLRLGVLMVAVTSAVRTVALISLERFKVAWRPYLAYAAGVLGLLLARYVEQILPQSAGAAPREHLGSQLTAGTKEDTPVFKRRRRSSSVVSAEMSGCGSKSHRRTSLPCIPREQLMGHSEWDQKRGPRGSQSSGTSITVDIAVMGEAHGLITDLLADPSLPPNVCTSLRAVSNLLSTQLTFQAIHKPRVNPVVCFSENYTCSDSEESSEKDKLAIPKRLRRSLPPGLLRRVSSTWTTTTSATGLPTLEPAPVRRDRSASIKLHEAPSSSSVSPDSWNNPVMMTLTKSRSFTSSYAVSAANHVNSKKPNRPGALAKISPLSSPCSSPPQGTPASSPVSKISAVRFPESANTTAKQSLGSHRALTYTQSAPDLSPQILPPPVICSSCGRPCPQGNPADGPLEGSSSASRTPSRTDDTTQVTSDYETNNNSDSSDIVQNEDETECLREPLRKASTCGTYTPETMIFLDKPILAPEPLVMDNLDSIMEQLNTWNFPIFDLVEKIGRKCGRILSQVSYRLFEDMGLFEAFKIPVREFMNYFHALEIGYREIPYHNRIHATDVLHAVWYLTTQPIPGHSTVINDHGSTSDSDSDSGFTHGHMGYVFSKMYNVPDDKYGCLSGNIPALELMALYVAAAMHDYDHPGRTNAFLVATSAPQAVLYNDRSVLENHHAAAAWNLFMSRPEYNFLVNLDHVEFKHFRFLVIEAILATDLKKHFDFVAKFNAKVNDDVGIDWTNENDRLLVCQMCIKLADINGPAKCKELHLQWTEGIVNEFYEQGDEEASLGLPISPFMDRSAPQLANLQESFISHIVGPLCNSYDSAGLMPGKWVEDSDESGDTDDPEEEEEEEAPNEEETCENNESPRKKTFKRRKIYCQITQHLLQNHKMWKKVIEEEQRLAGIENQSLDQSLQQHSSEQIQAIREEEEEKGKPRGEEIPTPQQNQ
# assay-overview: Inhibitory activity on PDE III purified from canine tracheal smooth muscle (Test Example 1)
# Format: biochemical
# conditions: 1 μM; 1.0 μM [3H]cAMP substrate, 10 μM rolipram added; read-out: PDE Inhibitory activity, PDE III, Percent inhibition
Where a name gives a salt, the structure may show the parent alone.
Listing of entries alongside the reported inhibition at 1 µM.
property-name: inhibition at 1 µM (%)

INSERT INTO results (compound, property_name, recorded_measurement) VALUES
  ('CCn1c(=O)[nH]c2cc3c(NCc4ccc(F)c(F)c4)ncnc3cc21 [Compound 20, hydrochloride]', 'inhibition at 1 µM', 47),
  ('CCCn1c(=S)[nH]c2cc3c(NCc4ccccc4)ncnc3cc21', 'inhibition at 1 µM', 27),
  ('CCn1c(=S)[nH]c2cc3c(NCc4cccc(OC)c4)ncnc3cc21 [Compound 51, hydrochloride]', 'inhibition at 1 µM', 48),
  ('CCn1c(=O)[nH]c2cc3c(NCc4cccc(OC)c4)ncnc3cc21 [Compound 15, hydrochloride]', 'inhibition at 1 µM', 50),
  ('CCn1c(=S)[nH]c2cc3c(NCc4ccncc4)ncnc3cc21.Cl.Cl [Compound 47, dihydrochloride]', 'inhibition at 1 µM', 60),
  ('CCn1c(=S)[nH]c2cc3c(NCc4cccc(C(F)(F)F)c4)ncnc3cc21 [Compound 54, hydrochloride]', 'inhibition at 1 µM', 32);
